test: Cytotoxicity against human Hep3B cells incubated for 48 hrs by MTT assay; format: functional, cell-based, Hep 3B2
Would you mind telling me the reported IC50 of each entry?

{"smiles text": "CCOC(=O)c1cc2c3ccccc3n(Cc3cc(OC)c(OC)c(OC)c3)c2cn1", "data value": "> 100 µM"}
{"smiles text": "CCOC(=O)c1cc2c3ccccc3n(Cc3ccc(OC)cc3)c2cn1", "data value": "50 µM"}

// next entry
Noted for CCOC(=O)c1cc2c3ccccc3n(Cc3ccccn3)c2cn1 : its IC50 reads > 100 µM

----------
tested on: Detroit 551; test: Cytotoxicity against human Detroit 551 cells incubated for 48 hrs by MTT assay; format: cell-based; conditions: Detroit 551, 48 h
pIC50: −log10 of the molar value.
measure name: pIC50

// worked examples, pIC50 included
{"smiles text": "CCOC(=O)c1cc2c3ccccc3n(Cc3ccc(Cl)cc3)c2cn1", "data value": "< 4.00"}
{"smiles text": "CCOC(=O)c1cc2c3ccccc3n(Cc3ccccc3OC)c2cn1", "data value": "< 4.00"}
{"smiles text": "CCOC(=O)c1cc2c3ccccc3n(Cc3ccccc3)c2cn1", "data value": 4.30}
{"smiles text": "CCOC(=O)c1cc2c3ccccc3n(Cc3ccc(OC)cc3)c2cn1", "data value": 4.30}
{"smiles text": "CCOC(=O)c1cc2c3ccccc3n(Cc3cc(OC)c(OC)c(OC)c3)c2cn1", "data value": "< 4.00"}

// next entry
Noted for CCOC(=O)c1cc2c3ccccc3n(Cc3ccccn3)c2cn1 : its pIC50 reads < 4.00
